tested on: Escherichia coli; test: Antibacterial activity against Escherichia coli ATCC 25922; format: functional
PARAMETER: MBC

Example cases with answers are listed next.
N=C1N(CCc2cc(C(F)(F)F)cc(C(F)(F)F)c2)[C@@H](CC2CCCCC2)CN1[C@H](Cc1ccc2ccccc2c1)CN1CCCC1CN1C(N)=NC[C@@H]1Cc1ccccc1 (stereo partly drawn): > 10 µg/mL
CC(C)Cc1ccc(C(C)CN2C(=N)N([C@H](Cc3ccc4ccccc4c3)CN3CCCC3CN3C(N)=NC[C@@H]3Cc3ccccc3)C[C@@H]2CC2CCCCC2)cc1 (stereo partly drawn): > 10 µg/mL
CC(C)Cc1ccc(C(C)CN2C(=N)N([C@@H](CC3CCCCC3)CN3CCCC3CN3C(N)=NC[C@@H]3Cc3ccccc3)C[C@H]2CC2CCCCC2)cc1 (stereo partly drawn): > 10 µg/mL

Request: Reported MBC, compound CC(C)Cc1ccc(C(C)CN2C(=N)N([C@H](Cc3ccc4ccccc4c3)CN3CCCC3CN3C(N)=NC[C@@H]3C)C[C@@H]2CC2CCCCC2)cc1 (stereo partly drawn) : ____
Result: > 10 µg/mL

Request: Reported MBC, compound C[C@H]1CN=C(N)N1CC1CCCN1C[C@@H](Cc1ccc2ccccc2c1)N1C[C@H](CC2CCCCC2)N(CCc2cc(C(F)(F)F)cc(C(F)(F)F)c2)C1=N (stereo partly drawn) : ____
Result: 5 µg/mL

Request: Reported MBC, compound N=C1N(CCc2cc(C(F)(F)F)cc(C(F)(F)F)c2)[C@@H](CC2CCCCC2)CN1[C@H](CC1CCCCC1)CN1CCCC1CN1C(N)=NC[C@@H]1Cc1ccccc1 (stereo partly drawn) : ____
Result: > 10 µg/mL

Request: Reported MBC, compound CC(C)Cc1ccc(C(C)CN2C(=N)N([C@H](Cc3ccc4ccccc4c3)CN3CCCC3CN3C(N)=NC[C@@H]3Cc3ccccc3)C[C@H]2CC2CCCCC2)cc1 (stereo partly drawn) : ____
Result: > 10 µg/mL

Request: Reported MBC, compound CCCC[C@@H]1CN([C@H](CC2CCCCC2)CN2CCCC2CN2C(N)=NC[C@@H]2Cc2ccccc2)C(=N)N1CCc1cc(C(F)(F)F)cc(C(F)(F)F)c1 (stereo partly drawn) : ____
Result: 5 µg/mL

----------
tested on: Escherichia coli; assay: Antibacterial activity against Escherichia coli ATCC 25922; assay type: functional
PARAMETER: MIC

Example cases with answers are listed next.
CC(C)Cc1ccc(C(C)CN2C(=N)N([C@H](Cc3ccc4ccccc4c3)CN3CCCC3CN3C(N)=NC[C@@H]3Cc3ccccc3)C[C@H]2CC2CCCCC2)cc1 (stereo partly drawn): > 10 µg/mL
CC(C)Cc1ccc(C(C)CN2C(=N)N([C@H](CC3CCCCC3)CN3CCCC3CN3C(N)=NC[C@@H]3C)C[C@@H]2CC2CCCCC2)cc1 (stereo partly drawn): 5 µg/mL
CCCC[C@@H]1CN([C@H](CC2CCCCC2)CN2CCCC2CN2C(N)=NC[C@@H]2C)C(=N)N1CCc1cc(C(F)(F)F)cc(C(F)(F)F)c1 (stereo partly drawn): > 10 µg/mL
C[C@H]1CN=C(N)N1CC1CCCN1C[C@H](CC1CCCCC1)N1C[C@@H](CC2CCCCC2)N(CCc2cc(C(F)(F)F)cc(C(F)(F)F)c2)C1=N (stereo partly drawn): > 10 µg/mL
CCCC[C@@H]1CN([C@@H](CC2CCCCC2)CN2CCCC2CN2C(N)=NC[C@@H]2Cc2ccccc2)C(=N)N1CC(C)c1ccc(CC(C)C)cc1 (stereo partly drawn): > 10 µg/mL

Request: Reported MIC, compound C[C@H]1CN=C(N)N1CC1CCCN1C[C@@H](Cc1ccc2ccccc2c1)N1C[C@H](CC2CCCCC2)N(CCc2cc(C(F)(F)F)cc(C(F)(F)F)c2)C1=N (stereo partly drawn) : ____
Result: 5 µg/mL

Request: Reported MIC, compound C[C@H]1CN=C(N)N1CC1CCCN1C[C@@H](Cc1ccc2ccccc2c1)N1C[C@@H](CC2CCCCC2)N(CCc2cc(C(F)(F)F)cc(C(F)(F)F)c2)C1=N (stereo partly drawn) : ____
Result: > 10 µg/mL

Request: Reported MIC, compound CCCC[C@@H]1CN([C@H](CC2CCCCC2)CN2CCCC2CN2C(N)=NC[C@@H]2Cc2ccccc2)C(=N)N1CC(C)c1ccc(CC(C)C)cc1 (stereo partly drawn) : ____
Result: > 10 µg/mL

Request: Reported MIC, compound C[C@H]1CN=C(N)N1CC1CCCN1C[C@@H](CC1CCCCC1)N1C[C@@H](CC2CCCCC2)N(CCc2cc(C(F)(F)F)cc(C(F)(F)F)c2)C1=N (stereo partly drawn) : ____
Result: 5 µg/mL

Request: Reported MIC, compound CCCC[C@@H]1CN([C@H](Cc2ccc3ccccc3c2)CN2CCCC2CN2C(N)=NC[C@@H]2Cc2ccccc2)C(=N)N1CCc1cc(C(F)(F)F)cc(C(F)(F)F)c1 (stereo partly drawn) : ____
Result: > 10 µg/mL

Request: Reported MIC, compound CCCC[C@@H]1CN([C@@H](CC2CCCCC2)CN2CCCC2CN2C(N)=NC[C@@H]2Cc2ccccc2)C(=N)N1CCc1cc(C(F)(F)F)cc(C(F)(F)F)c1 (stereo partly drawn) : ____
Result: > 10 µg/mL

Request: Reported MIC, compound CC(C)Cc1ccc(C(C)CN2C(=N)N([C@@H](CC3CCCCC3)CN3CCCC3CN3C(N)=NC[C@@H]3C)C[C@H]2CC2CCCCC2)cc1 (stereo partly drawn) : ____
Result: > 10 µg/mL

Request: Reported MIC, compound N=C1N(CCc2cc(C(F)(F)F)cc(C(F)(F)F)c2)[C@H](CC2CCCCC2)CN1[C@H](CC1CCCCC1)CN1CCCC1CN1C(N)=NC[C@@H]1Cc1ccccc1 (stereo partly drawn) : ____
Result: > 10 µg/mL

Cited source for all entries: ChEMBL document CHEMBL1146892
